Hello, the source for this data is patent US20120202801A1, in case you need it.

Test system: hypoxia-inducible endogenous VEGF expression
Assay: Hypoxia-inducible endogenous VEGF expression ELISA in HeLa cells, dose-response (EC50, Table 3)
Conditions: Homo sapiens, read-out: ELISA EC50 μM
Please go through the items and note down their EC50.

Form: molecule = CC(=O)N1CCN(CC(O)COc2ccc(C3c4[nH]c5ccc(Cl)cc5c4CCN3C(=O)Oc3ccc(F)cc3)cc2)CC1 (stereo not shown) ; EC50 = < 0.008 µM

The reported value for COCCCNCCCCOc1ccc(C2c3[nH]c4ccc(Cl)cc4c3CCN2C(=O)Oc2ccc(Cl)cc2)cc1 (stereo not shown) in terms of EC50 is 0.008 to 0.04 µM

In plain terms, CC(=O)N1CCN(CCCOc2ccc(C3c4[nH]c5ccc(Cl)cc5c4CCN3C(=O)Oc3ccc(Cl)cc3)cc2)CC1 (stereo not shown) has a documented EC50 of < 0.008 µM

Reported EC50 ( O=C(Oc1ccc(F)cc1)N1CCc2c([nH]c3ccc(Cl)cc23)C1c1ccc(OCC(O)CN2CCOCC2)cc1 (stereo not shown) ) = < 0.008 µM

Measured EC50, CN1CCN(CCCCCCOc2ccc(C3c4[nH]c5ccc(Cl)cc5c4CCN3C(=O)Oc3ccc(Cl)cc3)cc2)CC1 (stereo not shown) : 0.008 to 0.04 µM

For reference, reported EC50 for CC(C)NCCCCOc1ccc(C2c3[nH]c4ccc(Cl)cc4c3CCN2C(=O)Oc2ccc(Cl)cc2)cc1 (stereo not shown) stands at 0.008 to 0.04 µM

response.value for CN1CCCC(COc2ccc(C3c4[nH]c5ccc(Cl)cc5c4CCN3C(=O)Oc3ccc(Cl)cc3)cc2)C1 (stereo not shown) (field: EC50) = 0.008 to 0.04 µM
